# Tested on: NCI-H23 lung
# PROCEDURE TEXT: NCI-60 one-dose screen, 48 h
# MEASUREMENT CONDITIONS: 10 µM unless noted
The panel holds about 83,000 compounds, 20% with a hit somewhere; the sample as a whole holds those more often. Activity calls are given as the source filed them. The calls were made as follows: active = growth percent below 10; inactive = the rest.
Assign a class; possible classes are true (active), false (inactive)

COMPOUND	CLASS NAME
c1ccc(-c2nc([P+](c3ccccc3)(c3ccccc3)c3ccccc3)c(N3CCOCC3)o2)cc1	true
COc1ccc(C2=NN(C(=O)c3cc(OC)c(OC)c(OC)c3)C(c3ccc(Cl)cc3)C2)cc1OC (stereo not drawn)	true
CCN1C(=O)N(CC)C2Nn3c(s/c(=C4\C(=O)N(C)c5ccccc54)c3=O)=NC21 (stereo not drawn)	false
O=C1Nc2ccc(F)cc2C12Nc1cc(Cl)ccc1S2 (stereo not drawn)	false
CC(C)(C)C(CCc1ccc(Cl)cc1)N1CCN(C2CCCCC2)CC1 (stereo not drawn)	false
Cc1cccc(Cc2cnc(NC(=O)c3ccc4nnsc4c3)s2)c1	false
COc1cccc2c1C(=O)c1c(O)c3c(c(O)c1C2=O)CC(O)(/C(C)=N/NC(=O)CCCCC(=O)N/N=C(\C)C1(O)Cc2c(O)c4c(c(O)c2C(OC2CC(N)C(O)C(C)O2)C1)C(=O)c1c(OC)cccc1C4=O)CC3OC1CC(N)C(O)C(C)O1 (stereo not drawn)	true

Could you now look at the following compound, please?
Field: outcome | Entry: "COC(=O)[C@]12CC[C@@H](C)[C@H](C)[C@@H]1C1=CC[C@@H]3[C@@]4(C)C(C=O)=C[C@@](C)(CO)[C@@H]4[C@H](O)C[C@@]3(C)[C@]1(C)CC2" true
